- Tested on: Plasmodium falciparum
- assay-summary: Antimalarial activity against chloroquine-sensitive asexual blood stage of Plasmodium falciparum 3D7 infected in RBC after 72 hrs by SYBR Green assay
- Assay type: functional, organism-based
- test-conditions: 3D7, 72 h
# key: entry, value: log10(IC50)
A value of 2 here means IC50 of 100 in nM, since values are log10.

molecule-smiles: Cn1c(=O)n(-c2cccc(C(F)(F)F)c2)c2c3cc(-c4cnc(N)nc4)ccc3ncc21
endpoint: log10(IC50)
endpoint-result: 1.23

molecule-smiles: Nc1ccc(-c2ccc3ncc4[nH]c(=O)n(-c5ccc(C(F)(F)F)cc5)c4c3c2)cn1
endpoint: log10(IC50)
endpoint-result: 2.72

molecule-smiles: NS(=O)(=O)c1ccc(-c2ccc3ncc4[nH]c(=O)n(-c5cccc(C(F)(F)F)c5)c4c3c2)cc1
endpoint: log10(IC50)
endpoint-result: 2.98

molecule-smiles: Cn1c(=O)n(-c2cccc(C(F)(F)F)c2)c2c3cc(-c4ccc(F)cc4)ccc3ncc21
endpoint: log10(IC50)
endpoint-result: 3.50

molecule-smiles: COc1cccc(-n2c(=O)n(C)c3cnc4ccc(-c5ccc(N)nc5)cc4c32)c1
endpoint: log10(IC50)
endpoint-result: 1.94

molecule-smiles: Cn1c(=O)n(-c2ccc(C(F)(F)F)cc2)c2c3cc(-c4ccc(N)nc4)ccc3ncc21
endpoint: log10(IC50)
endpoint-result: 2.02

molecule-smiles: O=c1[nH]c2cnc3ccc(-c4ccc(Cl)cc4)cc3c2n1-c1cccc(C(F)(F)F)c1
endpoint: log10(IC50)
endpoint-result: 3.23

molecule-smiles: CC(=O)Nc1ccc(-c2ccc3ncc4c(c3c2)n(-c2cccc(C(F)(F)F)c2)c(=O)n4C)cn1
endpoint: log10(IC50)
endpoint-result: 1.40

molecule-smiles: Cn1c(=O)n(-c2cccc(C(F)(F)F)c2)c2c3cc(-c4ccc(N)nc4)ccc3ncc21
endpoint: log10(IC50)
endpoint-result: 0.85

molecule-smiles: N#Cc1cccc(-c2ccc3ncc4[nH]c(=O)n(-c5cccc(C(F)(F)F)c5)c4c3c2)c1
endpoint: log10(IC50)
endpoint-result: 2.94

The record that follows has no log10(IC50) shown yet.
// `Cn1c(=O)n(-c2cccc(C(F)(F)F)c2)c2c3cc(-c4cccc(N)c4)ccc3ncc21` : log10(IC50) value = 1.89

Origin of values: ChEMBL document CHEMBL3797182
